measured.on: Tyrosine-protein kinase BTK (Homo sapiens, UniProt Q06187)
Sequence (Q06187 whole entry): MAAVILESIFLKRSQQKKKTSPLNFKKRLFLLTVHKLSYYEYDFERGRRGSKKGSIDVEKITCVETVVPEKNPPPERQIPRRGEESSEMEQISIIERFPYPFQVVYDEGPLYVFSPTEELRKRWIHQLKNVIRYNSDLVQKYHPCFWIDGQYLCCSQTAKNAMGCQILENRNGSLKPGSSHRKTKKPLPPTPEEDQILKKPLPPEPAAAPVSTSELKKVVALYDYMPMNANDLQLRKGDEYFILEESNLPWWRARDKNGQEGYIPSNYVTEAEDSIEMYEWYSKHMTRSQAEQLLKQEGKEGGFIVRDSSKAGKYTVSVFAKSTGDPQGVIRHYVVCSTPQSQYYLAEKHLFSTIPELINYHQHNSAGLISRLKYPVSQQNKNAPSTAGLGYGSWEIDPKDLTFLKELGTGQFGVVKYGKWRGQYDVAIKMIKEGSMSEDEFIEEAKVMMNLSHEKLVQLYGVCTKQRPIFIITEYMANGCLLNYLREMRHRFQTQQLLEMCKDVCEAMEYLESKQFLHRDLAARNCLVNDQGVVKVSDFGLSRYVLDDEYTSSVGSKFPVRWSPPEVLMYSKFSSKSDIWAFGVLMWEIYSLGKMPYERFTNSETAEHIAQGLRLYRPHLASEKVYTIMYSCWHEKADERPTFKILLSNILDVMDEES
assay.text: Inhibition of N-terminal His-tagged full length human recombinant BTK expressed in baculovirus infected Sf9 insect cells using Poly (4:1 Glu, Tyr) peptide substrate incubated for 60 mins by ADP-Glo luminescence assay
Checkbox rule: IC50 lower than 0.007 µM = Yes; IC50 not lower than 0.007 µM = No.

{"columns": ["compound", "label.value"],
 "data": [
  ["C=CC(=O)Nc1cccc(Nc2nc(Nc3ccc(OCC(=O)N(CCOC)CCOC)c(Cl)c3)ncc2Cl)c1", "No"],
  ["C=CC(=O)Nc1cccc(Nc2nc(Nc3ccc(NC(=O)CN(CCOC)CCOC)cc3)ncc2Cl)c1", "No"],
  ["C=CC(=O)Nc1cccc(Nc2nc(Nc3ccc(OCC(=O)N(CCOC)CCOC)cc3)ncc2Cl)c1", "Yes"],
  ["C=CC(=O)Nc1cccc(Nc2nc(Nc3ccc(OCC4CCCO4)cc3)ncc2F)c1 (centres undefined)", "No"],
  ["C=CC(=O)Nc1cccc(Nc2nc(Nc3ccc(NC(=O)CN(CCOC)CCOC)c(OC)c3)ncc2Cl)c1", "No"],
  ["C=CC(=O)Nc1cccc(Nc2nc(Nc3ccc(N(CCOC)CCOC)cc3)ncc2Cl)c1", "Yes"],
  ["C=CC(=O)Nc1cccc(Nc2nc(Nc3ccc(NC(=O)CN(CCOC)CCOC)c(C)c3)ncc2Cl)c1", "No"],
  ["C=CC(=O)Nc1cccc(Nc2nc(Nc3ccc(OCC4CCCO4)cc3)ncc2Cl)c1 (centres undefined)", "No"]
]}

###

IC50 reference
Tested on: Ramos
assay.text: Antiproliferative activity against human Ramos cells after 48 hrs by CCK-8 assay
Format: functional, cell-based
readout.type: IC50

{"columns": ["compound", "data.value"],
 "data": [
  ["C=CC(=O)Nc1cccc(Nc2nc(Nc3ccc(OCC(=O)N(CCOC)CCOC)cc3)ncc2F)c1", "> 40 µM"],
  ["C=CC(=O)Nc1cccc(Nc2nc(Nc3ccc(OCC(=O)OCC4CCCO4)cc3)ncc2Cl)c1 (stereo not given)", "> 40 µM"],
  ["C=CC(=O)Nc1cccc(Nc2nc(Nc3ccc(N(CCOC)CCOC)cc3)ncc2F)c1", "18.1 µM"],
  ["C=CC(=O)Nc1cccc(Nc2nc(Nc3ccc(OCC4CCCO4)cc3)ncc2F)c1 (stereo not given)", "22.3 µM"],
  ["C=CC(=O)Nc1cccc(Nc2nc(Nc3ccc(OCCOC)cc3)ncc2F)c1", "20.9 µM"]
]}
